// data source = patent US20080064735A1

system: Plutella xylostella; test: Plutella xylostella greenhouse spray test on cauliflower and Bt cauliflower (cry9C); format: in vivo; conditions: 10 g active substance/ha; 7 DAA; Bt cauliflower
Give measured % feeding damage for each item. Keep answers brief.
Answers are plain numbers, in %.

>>> readout_number("CCc1nn(C)c(C(=O)NCc2ccc(Oc3ccc(C)cc3)cc2)c1Cl")
10
>>> readout_number("CS/C(C)=N\\OC(=O)N(C)SN(C)C(=O)O/N=C(\\C)SC")
0
>>> readout_number("N#Cc1nn(-c2c(Cl)cc(C(F)(F)F)cc2Cl)c(N)c1[S+]([O-])C(F)(F)F (stereo not shown)")
0

We now examine a further compound.
Request: // fetch % feeding damage given entry C/C(=N\C#N)N(C)Cc1ccc(Cl)nc1
Response: 0

====

tested on: Plutella xylostella; experiment: Plutella xylostella greenhouse spray test on cauliflower and Bt cauliflower (cry9C); assay type: in vivo; settings: 30 g active substance/ha; 2 DAA; cauliflower
Exercise: for every item that follows, state its recorded % feeding damage.
Numbers only, in %.

// input: 4 molecules below; output: % feeding damage for each
1. C/C(=N\C#N)N(C)Cc1ccc(Cl)nc1
2. CS/C(C)=N\OC(=O)N(C)SN(C)C(=O)O/N=C(\C)SC
3. N#Cc1nn(-c2c(Cl)cc(C(F)(F)F)cc2Cl)c(N)c1[S+]([O-])C(F)(F)F (stereo not shown)
4. CCc1nn(C)c(C(=O)NCc2ccc(Oc3ccc(C)cc3)cc2)c1Cl

Response:
10
10
4
10

====

Exercise: state measured % mortality for each of the compounds provided.
test system: Plutella xylostella; assay: Plutella xylostella greenhouse spray test on cauliflower and Bt cauliflower (cry9C); type: in vivo; details: 10 g active substance/ha; 7 DAA; Bt cauliflower
Give bare numbers, in %.

>>> readout_number("CCc1nn(C)c(C(=O)NCc2ccc(Oc3ccc(C)cc3)cc2)c1Cl [Tolfenpyrad]")
50
>>> readout_number("C/C(=N\\C#N)N(C)Cc1ccc(Cl)nc1 [Acetamiprid]")
100
>>> readout_number("CS/C(C)=N\\OC(=O)N(C)SN(C)C(=O)O/N=C(\\C)SC [Thiodicarb]")
100

Consider the additional compound presented here.
Request: Using known records, supply % mortality for N#Cc1nn(-c2c(Cl)cc(C(F)(F)F)cc2Cl)c(N)c1[S+]([O-])C(F)(F)F (stereo not shown) [Fipronil]
Response: 100

====

tested on: Plutella xylostella; assay: Plutella xylostella greenhouse spray test on cauliflower and Bt cauliflower (cry9C); assay type: in vivo; settings: 30 g active substance/ha; 7 DAA; cauliflower
quantity-measured: % mortality (%)
Answers are plain numbers, in %.

>>> readout_number("N#Cc1nn(-c2c(Cl)cc(C(F)(F)F)cc2Cl)c(N)c1[S+]([O-])C(F)(F)F (stereo not shown)")
100

# map each compound to its % mortality
1. CCc1nn(C)c(C(=O)NCc2ccc(Oc3ccc(C)cc3)cc2)c1Cl
2. CS/C(C)=N\OC(=O)N(C)SN(C)C(=O)O/N=C(\C)SC
3. C/C(=N\C#N)N(C)Cc1ccc(Cl)nc1

Response:
1. 0
2. 0
3. 0

====

system: Plutella xylostella; assay: Plutella xylostella greenhouse spray test on cauliflower and Bt cauliflower (cry9C); format: in vivo; settings: 10 g active substance/ha; 2 DAA; cauliflower
Provide the recorded % feeding damage for the entries that follow.
Answers are plain numbers, in %.

>>> readout_number("C/C(=N\\C#N)N(C)Cc1ccc(Cl)nc1 [Acetamiprid]")
10
>>> readout_number("CS/C(C)=N\\OC(=O)N(C)SN(C)C(=O)O/N=C(\\C)SC [Thiodicarb]")
10
>>> readout_number("N#Cc1nn(-c2c(Cl)cc(C(F)(F)F)cc2Cl)c(N)c1[S+]([O-])C(F)(F)F (stereo not shown) [Fipronil]")
8

Alright, here's another compound for you.
Request: Report % feeding damage for CCc1nn(C)c(C(=O)NCc2ccc(Oc3ccc(C)cc3)cc2)c1Cl [Tolfenpyrad]
Response: 10

====

system: Plutella xylostella; assay: Plutella xylostella greenhouse spray test on cauliflower and Bt cauliflower (cry9C); format: in vivo; conditions: 30 g active substance/ha; 4 DAA; cauliflower
I'd appreciate it if you could supply % mortality values for the items below.
Give bare numbers, in %.

>>> readout_number("C/C(=N\\C#N)N(C)Cc1ccc(Cl)nc1")
0
>>> readout_number("CCc1nn(C)c(C(=O)NCc2ccc(Oc3ccc(C)cc3)cc2)c1Cl")
0

Request: Return value of % mortality for input CS/C(C)=N\OC(=O)N(C)SN(C)C(=O)O/N=C(\C)SC , no commentary.
Response: 0
